Just for reference, PubChem BioAssay AID1963845 is where these values come from.

tested on: 429239-143-T-J1-PDC complex spheroid viability; assay: Anticancer human tumor 429239-143-T-J1-PDC patient-derived small cell lung carcinoma cell line growth inhibition [POLQ]; settings: curve of first compound; second compound 0.0316 µM;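 also: luminescence signal used as surrogate measure of viable cells; spheroids exposed to compounds for seven days before readout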
Catalogue of IC50 values

- compound: "Nc1ccn(C2OC(CO)C(O)C2(F)F)c(=O)n1 (stereo unspecified) + COC1C(OC(N)=O)C(O)C(Oc2ccc3c(O)c(NC(=O)c4ccc(O)c(CC=C(C)C)c4)c(=O)oc3c2C)OC1(C)C"
  qualifierOperator: "<"
  IC50 / nM: 31.6
- compound: "CC1COCCN1c1cc(-c2ccnn2C)c2ccnc(-c3ccn[nH]3)c2n1 (stereo unspecified) + Nc1ccc(C#CCN(C(=O)Cc2ncc(C(F)(F)F)cc2C(F)(F)F)c2ccc(F)cc2)nn1"
  qualifierOperator: "="
  IC50 / nM: 545
- compound: "C=CCn1c(=O)c2cnc(Nc3ccc(N4CCN(C)CC4)cc3)nc2n1-c1cccc(C(C)(C)O)n1 + Nc1ccc(C#CCN(C(=O)Cc2ncc(C(F)(F)F)cc2C(F)(F)F)c2ccc(F)cc2)nn1"
  qualifierOperator: "="
  IC50 / nM: 584
- compound: "O=C(Nc1ccc(O)c(NS(=O)(=O)c2ccc(F)cc2)c1)c1ccc(-c2ccccc2)cc1 + COC1C(OC(N)=O)C(O)C(Oc2ccc3c(O)c(NC(=O)c4ccc(O)c(CC=C(C)C)c4)c(=O)oc3c2C)OC1(C)C"
  qualifierOperator: ">"
  IC50 / nM: 10000
- compound: "COc1cc2cc(C(=O)CCC(=O)O)sc2cc1OC + Nc1ccc(C#CCN(C(=O)Cc2ncc(C(F)(F)F)cc2C(F)(F)F)c2ccc(F)cc2)nn1"
  qualifierOperator: ">"
  IC50 / nM: 10000
- compound: "O=c1[nH]cc(F)c(=O)[nH]1 + Cc1cccc(N(C)C(=O)C2C(O)CCN2c2nc(C)cc(C(F)(F)F)c2C#N)c1"
  qualifierOperator: ">"
  IC50 / nM: 10000
- compound: "COc1cccc2c1C(=O)c1c(O)c3c(c(O)c1C2=O)CC(O)(C(=O)CO)CC3OC1CC(N)C(O)C(C)O1 (stereo unspecified) + Nc1ccc(C#CCN(C(=O)Cc2ncc(C(F)(F)F)cc2C(F)(F)F)c2ccc(F)cc2)nn1"
  qualifierOperator: "="
  IC50 / nM: 75.7
- compound: "C=CCn1c(=O)c2cnc(Nc3ccc(N4CCN(C)CC4)cc3)nc2n1-c1cccc(C(C)(C)O)n1 + Cc1cccc(N(C)C(=O)C2C(O)CCN2c2nc(C)cc(C(F)(F)F)c2C#N)c1"
  qualifierOperator: "="
  IC50 / nM: 644
- compound: "C#Cc1c(F)ccc2cc(O)cc(-c3ncc4c(N5CC6CCC(C5)N6)nc(OCC56CCCN5CC(F)C6)nc4c3F)c12 (stereo unspecified) + Nc1ccc(C#CCN(C(=O)Cc2ncc(C(F)(F)F)cc2C(F)(F)F)c2ccc(F)cc2)nn1"
  qualifierOperator: ">"
  IC50 / nM: 10000
- compound: "CNCc1ccc(-c2[nH]c3cc(F)cc4c3c2CCNC4=O)cc1 + COC1C(OC(N)=O)C(O)C(Oc2ccc3c(O)c(NC(=O)c4ccc(O)c(CC=C(C)C)c4)c(=O)oc3c2C)OC1(C)C"
  qualifierOperator: "="
  IC50 / nM: 2300
- compound: "C#Cc1c(F)ccc2cc(O)cc(-c3ncc4c(N5CC6CCC(C5)N6)nc(OCC56CCCN5CC(F)C6)nc4c3F)c12 (stereo unspecified) + COC1C(OC(N)=O)C(O)C(Oc2ccc3c(O)c(NC(=O)c4ccc(O)c(CC=C(C)C)c4)c(=O)oc3c2C)OC1(C)C"
  qualifierOperator: ">"
  IC50 / nM: 10000
